- test target: T1, human PD-1 dimer (human PD-1-mFc or human PD-1-hFc) (human, UniProt Q15116 25-170)
- T1 construct: also called hPD-1-mFc; hPD1-hFc
- T1 sequence (Q15116 25-170 C93S): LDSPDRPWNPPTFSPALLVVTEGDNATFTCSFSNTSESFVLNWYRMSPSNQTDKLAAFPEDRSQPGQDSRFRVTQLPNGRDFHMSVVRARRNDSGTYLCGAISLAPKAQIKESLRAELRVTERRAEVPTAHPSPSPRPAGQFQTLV
- experiment notes: SPR, mAb captured, 25C;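 also: surface plasmon resonance on Biacore, PD-1 flowed over captured anti-PD-1 antibodies, rate constants from a 1:1 binding model fit, KD taken as kd/ka and t½ as ln2/(60·kd)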
property measured: pKd
Scale: negative log10 of molar concentration, which is what pKd denotes.

# count of solved cases: 3
1) H2aM7795N (antibody, mouse IgG2a, V domains shown, Human variable regions, mouse IgG2a Fc; also called H2M7795N) VH: EVQVVESGGGLVEPGRSLRLSCKASGFTFDDYAMHWVRQTPGKALEWVSGINWSGNNIGYADSVKGRFTISKDDAKNSLYLQMNSLRPEDTALYYCTKDISITGTLDAFDVWGQGTMVTVSS VL: DIQMTQSPISVSASVGDRVTITCRASQGISNWLAWYQQKPGIAPKLLIYSASSLQSGVPSRFRGSGSGTDFTLTIGSLQPEDFATYYCQQAHSFPLTFGGGTKVEIK :: 9.64
2) H2aM7798N (antibody, mouse IgG2a, V domains shown, Human variable regions, mouse IgG2a Fc; also called H2M7798N) VH: EVQLLESGGVLVQPGGSLRLSCAASGFTFSNFGMTWVRQAPGKGLEWVSGISGGGRDTYFADSVKGRFTISRDNSKNTLYLQMNSLKGEDTAVYYCVKWGNIYFDYWGQGTLVTVSS VL: DIQMTQSPSSLSASVGDSITITCRASLSINTFLNWYQQKPGKAPNLLIYAASSLHGGVPSRFSGSGSGTDFTLTIRTLQPEDFATYYCQQSSNTPFTFGPGTVVDFR :: 10.18
3) H1M7799N (antibody, mouse IgG1, V domains shown, Human variable regions, mouse IgG1 Fc) VH: EVQLVESGGGLVQPGGSLRLSCAASGFTVSNNYMSWVRQAPGKGLEWVSVIYSGGFTYYTDSVKGRFTISRHNSKNTLYLQMNSLRAEDTAVYYCARYYYDTSDYWTFFDYWGQGTLVTVSS VL: EIVMTQSPATLSVSPGERATLSCRASQSVSSNLAWYQQKPGQAPRLLIYGASTRATGIPARFSGSGSGTEFTLTISSLQSGDFAVYYCQQYNNWPLTFGGGTKVEIN :: 9.44

Which pKd reading was recorded for the binder H2aM7796N (antibody, mouse IgG2a, V domains shown, Human variable regions, mouse IgG2a Fc; also called H2M7796N) VH: QVQLVESGGGVVQPGRSLRLSCAASGFTFSSYGMHWVRQAPGKGLEWVAIIWSDGDSEYNLDSVKGRFTISRDNSKNTLYLQMNSLRVEDSAVYYCARDRDLEDIWGQGTMVTVSS VL: DIQMTQSPSSLSASVGDRVTITCRASQGIRNDLGWYQQKPGKAPKRLIYAASNLQSGVPSRFSGSGSGTEFTLTISSLQPEDFATYYCLQHNSYPLTFGGGTKVEIK ?
8.48

Using the record for H4H7795N2 (antibody, human IgG4 S228P, kappa, V domains shown) VH: EVQVVESGGGLVEPGRSLRLSCKASGFTFDDYAMHWVRQTPGKALEWVSGISWSGNNIGYADSVKGRFTISKDDAKNSLYLQMNSLRPEDTALYYCTKDISITGTLDAFDVWGQGTMVTVSS VL: DIQMTQSPISVSASVGDRVTITCRASQGISNWLAWYQQKPGIAPKLLIYSASSLQSGVPSRFRGSGSGTDFTLTIGSLQPEDFATYYCQQAHSFPLTFGGGTKVEIKR , report its pKd.
9.21

Looking for the measured pKd of H2aM7791N (antibody, mouse IgG2a, V domains shown, Human variable regions, mouse IgG2a Fc; also called H2M7791N) VH: QMQLQQWGAGLLKPSETLSLTCVVYGGSLNGYYWSWIRQSPGKGLEWIGEIDHSGSTNYNPSLKNRVTMSVDTSKIQFSLKLTSVTVADTAVYYCAREGLLPFDYWGQGTLVTVSS VL: EIVLTQSPGTLSLSPGERVTLSCRASQSVYSNYLAWYQQNPGQAPRLLIYAASNRATGIPDRFSGSGSGTDFTLTISRLEPEDFAVYYCHQYATSPWTFGQGTKVEIK , can you help?
8.60

# input binder: H1M7800N (antibody, mouse IgG1, V domains shown, Human variable regions, mouse IgG1 Fc) VH: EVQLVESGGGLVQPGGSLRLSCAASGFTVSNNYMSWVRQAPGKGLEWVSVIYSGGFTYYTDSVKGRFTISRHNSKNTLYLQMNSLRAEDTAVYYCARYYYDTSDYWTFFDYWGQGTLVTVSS VL: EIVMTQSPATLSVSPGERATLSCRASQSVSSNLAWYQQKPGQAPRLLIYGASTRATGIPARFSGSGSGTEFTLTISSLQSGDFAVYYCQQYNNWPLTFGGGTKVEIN ; wanted: its pKd
9.29

Reported pKd, binder H1M7789N (antibody, mouse IgG1, V domains shown, Human variable regions, mouse IgG1 Fc) VH: EVQLLESGGGLVQPGGSLRLSCSASGFTFSSYTMNWVRQAPGKGLEWVSGISDTGGNTYYTDSVKGRFTVSRDNSKNTLSLQMNSLRAEDTAVYYCAKDQGGSYPYYFHYWGQGSLVTVSS VL: DIQMTQSPSSLSASVGDRVTITCRASQSISSYLIWYQQKPGTAPKFLIYAASSLQSGVPSRFSGCGSGTDFTLTISSLQPEDFATYYCQQSYSTPPITFGQGTRLEIK : ____
8.96

Data provenance: patent US20150203579A1
